Endpoint Name: melting point

Examples with their reported melting point follow.
- Compound: "O=C(O)c1ccc(CS(=O)(=O)c2ccccc2)cc1"
  melting point: "297 to 299 °C"
- Compound: "COC(=O)c1cc2ccccc2n1C"
  melting point: "69 to 71 °C"
- Compound: "OC1(CNCc2ccccc2)CCc2ccccc21 (stereo not given)"
  melting point: "54 to 56 °C"
- Compound: "Nc1ccnn1Cc1ccc(F)cc1"
  melting point: "59 to 61 °C"
- Compound: "Cc1[nH]c2ccccc2c1C(=O)CCl"
  melting point: "227 to 229 °C"
- Compound: "O=C(O)Cc1cccc(OCc2ccncc2)c1"
  melting point: "138 to 140 °C"
- Compound: "Nc1c(-c2ccccn2)nc2ccccn12"
  melting point: "199 to 201 °C"
- Compound: "Cc1ccc(CC(=O)O)c(Cl)c1"
  melting point: "129 to 131 °C"

Challenge: Look at this compound and give its reported melting point. `CN1CCN(C(=O)Cn2cc(N)cn2)CC1`
Response given: 119 to 121 °C

Challenge: Look at this compound and give its reported melting point. `ClCc1cc(Cl)cc2c1OCC2`
Response given: 46 to 48 °C

Challenge: Look at this compound and give its reported melting point. `O=C1CCOc2c(Cl)cc(Cl)cc21`
Response given: 86 to 88 °C

Challenge: Look at this compound and give its reported melting point. `Cc1ccc(S(N)(=O)=O)c(C)c1`
Response given: 139 to 141 °C

Challenge: Look at this compound and give its reported melting point. `O=C1CN(c2ccccc2)CCCN1`
Response given: 191 to 193 °C

Challenge: Look at this compound and give its reported melting point. `CC(=O)c1ccc2c(c1)CCC(=O)N2`
Response given: 162 to 164 °C

Challenge: Look at this compound and give its reported melting point. COc1ccc(C2C(CO)CC(=O)N2C)cc1 (stereo not given)
Response given: 82 to 84 °C

Challenge: Look at this compound and give its reported melting point. `COC(=O)c1ccn2cncc2c1`
Response given: 93 to 95 °C

Challenge: Look at this compound and give its reported melting point. `COC(=O)c1ccc(N)cc1C`
Response given: 69 to 71 °C

Challenge: Look at this compound and give its reported melting point. `Nc1ncc(Cc2ccc(S(N)(=O)=O)cc2)s1`
Response given: 177 to 179 °C

Challenge: Look at this compound and give its reported melting point. `N#CCCc1c(Cl)cccc1Cl`
Response given: 40 to 42 °C

Challenge: Look at this compound and give its reported melting point. `Sc1n[nH]c(-c2cccnc2)n1`
Response given: 304 to 306 °C

* * *

Listed next: entries and their corresponding melting point.

- Compound: "CC1(C)CC(NC(=O)CCl)CC(C)(C)N1"
  melting point: "61 to 63 °C"
- Compound: "Cc1c(NS(=O)(=O)c2ccc(Cl)c([N+](=O)[O-])c2)c(=O)n(-c2ccccc2)n1C"
  melting point: "227 to 229 °C"
- Compound: "CC(C)C(NC(=O)c1ccccc1)c1nn[nH]n1 (stereo not given)"
  melting point: "176 to 178 °C"
- Compound: "COC(=O)c1nccc(Cl)c1F"
  melting point: "49 to 51 °C"
- Compound: "CN(C)S(=O)(=O)c1cn(C)cn1"
  melting point: "119 to 121 °C"
- Compound: "NC(=S)Cc1ccccc1F"
  melting point: "92 to 94 °C"

Challenge: Look at this compound and give its reported melting point. CC(C)(C)C1CCc2[nH]c3ccc(Cl)cc3c2C1 (stereo not given)
Response given: 107 to 109 °C

Challenge: Look at this compound and give its reported melting point. `O=c1cc2c(n[nH]1)CCCC2`
Response given: 192 to 194 °C

Challenge: Look at this compound and give its reported melting point. Cc1ccc(C)c(C(C)Nc2ccc(C(=O)O)cc2C)c1 (stereo not given)
Response given: 211 to 213 °C

Challenge: Look at this compound and give its reported melting point. `O=C(O)c1cccn1Cc1cccs1`
Response given: 134 to 136 °C

Challenge: Look at this compound and give its reported melting point. `O=C(O)c1cccc(F)c1I`
Response given: 148 to 150 °C

Challenge: Look at this compound and give its reported melting point. `Cc1cc(N)n(CCC#N)n1`
Response given: 104 to 106 °C

* * *

Listed next: entries and their corresponding melting point.

Examples with their reported melting point follow.
- Compound: "CC(C)N1C(=O)NC2(CCNC2)C1=O (centres undefined)"
  melting point: "98 to 100 °C"
- Compound: "CC(=O)CCc1ccc(OC(C)C(=O)O)cc1 (centres undefined)"
  melting point: "68 to 70 °C"

Challenge: Look at this compound and give its reported melting point. `O=C1C(=O)N(Cc2ccc(Br)cc2)c2ccccc21`
Response given: 182 to 184 °C

Challenge: Look at this compound and give its reported melting point. NCC(O)C1CC1 (centres undefined)
Response given: 34 to 36 °C

* * *

Listed next: entries and their corresponding melting point.

Examples with their reported melting point follow.
- Smiles Representation: "CCCCn1c(N)cc(=O)[nH]c1=O"
  melting point: "238 to 240 °C"
- Smiles Representation: "O=C(O)CCn1cccn1"
  melting point: "76 to 78 °C"
- Smiles Representation: "O=C(CCl)c1c[nH]c(C(=O)N2CCCC2)c1"
  melting point: "200 to 204 °C"
- Smiles Representation: "O=C(O)c1c(Cl)nc2sccn12"
  melting point: "181 to 183 °C"
- Smiles Representation: "COc1ccc(S(=O)(=O)Nc2ccccc2C(=O)O)cc1"
  melting point: "183 to 185 °C"

Challenge: Look at this compound and give its reported melting point. `COc1ncc(Br)cc1CC#N`
Response given: 39 to 41 °C

Challenge: Look at this compound and give its reported melting point. `Nc1c[nH]nc1-c1ccccc1`
Response given: 147 to 149 °C

Challenge: Look at this compound and give its reported melting point. `Cc1ccc(C2(C(=O)O)CCOCC2)cc1`
Response given: 189 to 191 °C

* * *

Endpoint Name: melting point

Examples with their reported melting point follow.
- Compound: "O=C(CCl)N1CCN(S(=O)(=O)c2ccccc2Cl)CC1"
  melting point: "215 to 217 °C"
- Compound: "CN(C)c1nc2cc(C#N)ccc2o1"
  melting point: "203 to 205 °C"
- Compound: "Cc1ccc(NC(=O)CO)c(Cl)c1"
  melting point: "90 to 92 °C"
- Compound: "Cc1c(CC(=O)O)nnn1-c1ccccc1"
  melting point: "169 to 171 °C"
- Compound: "CN1CCN(C(=O)C2CCN(C(=O)OC(C)(C)C)CC2)CC1"
  melting point: "95 to 97 °C"

Challenge: Look at this compound and give its reported melting point. `Cc1cc(Oc2ccccc2)ccc1N`
Response given: 60 to 62 °C

Challenge: Look at this compound and give its reported melting point. `CCOC(=O)c1sc(N(C)C)nc1C`
Response given: 39 to 41 °C

Challenge: Look at this compound and give its reported melting point. `Cc1cccc(C2(C(=O)O)CCCCC2)c1`
Response given: 141 to 143 °C

Challenge: Look at this compound and give its reported melting point. `COc1cc(C2(C(=O)O)CCC2)ccc1C`
Response given: 125 to 127 °C

Challenge: Look at this compound and give its reported melting point. `Nc1ccc(OCCO)cc1C(F)(F)F`
Response given: 73 to 75 °C

Challenge: Look at this compound and give its reported melting point. `NS(=O)(=O)N1CCC(OC(=O)C(F)(F)F)CC1`
Response given: 126 to 128 °C

Challenge: Look at this compound and give its reported melting point. O=C(O)CC1C(=O)Nc2ccccc21 (centres undefined)
Response given: 214 to 216 °C

Challenge: Look at this compound and give its reported melting point. `Nc1nc2c(s1)CCCC2`
Response given: 30 to 32 °C

* * *

Endpoint Name: melting point

Examples with their reported melting point follow.
- Molecule: "O=c1c(Cl)c(Cl)cnn1-c1ccc(C(F)(F)F)cn1"
  Measured Value: "111 to 115 °C"
- Molecule: "Nc1cc(Cl)c(OC(F)F)c(Cl)c1"
  Measured Value: "82 to 84 °C"
- Molecule: "O=C(O)C1CCOc2ccccc21 (stereo not given)"
  Measured Value: "87 to 89 °C"
- Molecule: "COC(=O)c1ccccc1NC(=O)OCC(F)(F)F"
  Measured Value: "86 to 88 °C"
- Molecule: "CC1(C)CNCCS1(=O)=O"
  Measured Value: "46 to 48 °C"

Challenge: Look at this molecule and give its reported melting point. `CC(C)(C)OC(=O)NCc1ccc2c(c1)CCCN2`
Response given: 63 to 65 °C

Challenge: Look at this molecule and give its reported melting point. `Cc1cc(N)ccc1NS(C)(=O)=O`
Response given: 141 to 143 °C

Challenge: Look at this molecule and give its reported melting point. `CCCc1cc(N)on1`
Response given: 54 to 58 °C

Challenge: Look at this molecule and give its reported melting point. `Cc1nn(Cc2c(Cl)cccc2Cl)c(Cl)c1C(=O)O`
Response given: 187 to 189 °C

Challenge: Look at this molecule and give its reported melting point. `Cc1cccc(C=C(C(=O)O)c2cccs2)c1`
Response given: 158 to 160 °C
